# ASSAY NAME: Equilibrium solubility experiment for biological media and pH buffers
# Assay type: physicochemical
# CONDITIONS USED: pH 7.4, aqueous buffer, thermodynamic from solid; pH = 7.40 buffer, 37° C., 24 h; pH (24 h) 7.07; white suspension; read-out: Solubility (mg/mL) _24 hr
RESULT TYPE: solubility at 24 h (mg/mL)
Please give a number only; it is taken to be in mg/mL.

(Q) For `COC(=O)N1CCN([C@H]2CC[C@H](Nc3nc(Nc4cnn(C5CCOCC5)c4)nc4snc(C)c34)CC2)CC1` , what is its reported solubility at 24 h?
(A) 0.0012

----------
# ASSAY NAME: Equilibrium solubility experiment for biological media and pH buffers
# Format: physicochemical
# CONDITIONS USED: pH 2.00 and pH 3.8 buffers, 37 °C, simulated gastric fluid, thermodynamic from solid; at pH=1.00, pH=2.00, pH=3.8, water and SGF; read-out: solubility
RESULT TYPE: solubility at 24 h

(Q) Give the measured solubility at 24 h of `COC(=O)N1CCN([C@H]2CC[C@H](Nc3nc(Nc4cnn(C5CCOCC5)c4)nc4snc(C)c34)CC2)CC1` .
(A) > 10000 µg/mL

----------
# ASSAY NAME: Equilibrium solubility experiment for biological media and pH buffers
# Type: physicochemical
# CONDITIONS USED: pH 4.5, aqueous buffer, thermodynamic from solid; pH = 4.50 buffer, 37° C., 24 h; pH (24 h) 4.12; white suspension; read-out: Solubility (mg/mL) _24 hr
RESULT TYPE: solubility at 24 h (mg/mL)
Express the result in mg/mL but write the number alone.

(Q) Data request, read-out solubility at 24 h, for `COC(=O)N1CCN([C@H]2CC[C@H](Nc3nc(Nc4cnn(C5CCOCC5)c4)nc4snc(C)c34)CC2)CC1`
(A) 10.3

----------
# ASSAY NAME: In vivo pharmacokinetic study in SD rats
# CONDITIONS USED: rat; SD male rats, oral, 30 mg/kg, plasma; read-out: Area under plasma concentration-time curve AUC0-last
RESULT TYPE: AUC(0-t) (µM·h)
Hi! Could you send only the number? It should be in µM·h, unit omitted.

(Q) Quick one: AUC(0-t) of `COC(=O)N1CCN([C@H]2CC[C@H](Nc3nc(Nc4cnn(C5CCOCC5)c4)nc4snc(C)c34)CC2)CC1` ?
(A) 10.6

----------
# ASSAY NAME: In vivo pharmacokinetic study in SD rats
# CONDITIONS USED: rat, plasma; SD male rats, oral, 30 mg/kg; read-out: Bioavailability F (%)
RESULT TYPE: bioavailability (%)
The reply should be a number in %, with the unit left off.

(Q) Report bioavailability for `COC(=O)N1CCN([C@H]2CC[C@H](Nc3nc(Nc4cnn(C5CCOCC5)c4)nc4snc(C)c34)CC2)CC1` please.
(A) 62

----------
# ASSAY NAME: Equilibrium solubility experiment for biological media and pH buffers
# Assay type: physicochemical
# CONDITIONS USED: pH 6.8, aqueous buffer, thermodynamic from solid; pH = 6.80 buffer, 37° C., 24 h; pH (24 h) 6.57; white suspension; read-out: Solubility (mg/mL) _24 hr
RESULT TYPE: solubility at 24 h
Lab note: write values as number then unit, every time.

(Q) What value of solubility at 24 h has been reported for the following compound? `COC(=O)N1CCN([C@H]2CC[C@H](Nc3nc(Nc4cnn(C5CCOCC5)c4)nc4snc(C)c34)CC2)CC1`
(A) 0.05 mg/mL
